- target.of.assay: Ubiquitin-activating enzyme e1, putative (Leishmania donovani (strain BPK282A1)) (UniProt E9BSI1)
- Sequence (E9BSI1 as listed by the source): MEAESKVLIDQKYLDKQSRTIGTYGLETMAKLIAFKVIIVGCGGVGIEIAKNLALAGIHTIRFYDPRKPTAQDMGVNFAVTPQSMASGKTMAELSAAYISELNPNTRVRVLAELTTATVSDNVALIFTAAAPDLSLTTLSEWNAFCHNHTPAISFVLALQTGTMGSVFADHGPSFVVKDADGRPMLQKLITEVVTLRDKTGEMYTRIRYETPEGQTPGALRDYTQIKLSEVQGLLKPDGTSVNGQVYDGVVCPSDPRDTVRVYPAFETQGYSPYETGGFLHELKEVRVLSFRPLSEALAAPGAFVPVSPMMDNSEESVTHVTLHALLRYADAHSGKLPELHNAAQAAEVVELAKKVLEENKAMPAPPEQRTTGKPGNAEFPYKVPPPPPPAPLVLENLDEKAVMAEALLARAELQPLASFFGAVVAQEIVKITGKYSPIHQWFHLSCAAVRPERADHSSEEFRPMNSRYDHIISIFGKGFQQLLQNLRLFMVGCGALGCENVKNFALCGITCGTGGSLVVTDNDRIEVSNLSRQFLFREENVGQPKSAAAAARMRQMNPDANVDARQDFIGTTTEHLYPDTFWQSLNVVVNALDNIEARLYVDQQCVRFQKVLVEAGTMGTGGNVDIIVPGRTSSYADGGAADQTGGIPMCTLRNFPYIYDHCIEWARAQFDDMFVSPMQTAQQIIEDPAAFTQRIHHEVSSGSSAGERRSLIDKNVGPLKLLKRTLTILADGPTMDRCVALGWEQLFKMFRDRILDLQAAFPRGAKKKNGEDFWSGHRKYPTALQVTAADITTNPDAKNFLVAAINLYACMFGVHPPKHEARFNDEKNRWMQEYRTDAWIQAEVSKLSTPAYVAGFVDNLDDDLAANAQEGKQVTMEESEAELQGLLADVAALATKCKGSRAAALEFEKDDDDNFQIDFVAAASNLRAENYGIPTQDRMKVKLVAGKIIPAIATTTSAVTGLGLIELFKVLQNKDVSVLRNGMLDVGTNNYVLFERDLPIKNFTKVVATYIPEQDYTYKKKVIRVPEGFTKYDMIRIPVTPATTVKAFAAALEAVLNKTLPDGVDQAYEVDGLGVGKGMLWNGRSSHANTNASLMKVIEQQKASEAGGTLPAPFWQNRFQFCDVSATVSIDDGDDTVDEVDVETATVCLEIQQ
- method.notes: Leishmania donovani Ubiquitin Activating Enzyme (LdE1)
- Format: functional
- Parameters: scale not given: direction of the effect not stated beside the values
- condition.details: 30 µM
Measured potencies and affinities stand elsewhere.
measured.quantity: Percent Effect

compound | readout.value
CC(=O)N1CC(=O)N(c2cnn(C)c2)CC12CCN(CC1CC1)C2 (stereo unspecified) | 0%
CN1C(=O)C(C)(C)COc2cc(NS(=O)(=O)Cc3ccccc3)ccc21 | 16.4%
CCOC1CCN(C(=O)c2cnn(-c3ccccc3Cl)c2)CC1 | 8.11%
CC(C)(C)c1nc(CN(Cc2cccs2)C2CCS(=O)(=O)C2)no1 (stereo unspecified) | 21.1%
c1cnc(NCc2cncc3c2CCN(Cc2cccs2)C3)nc1 | 10.7%
Cc1n[nH]c(C2CN(C(=O)c3ccnc(C4CC4)n3)CCO2)n1 (stereo unspecified) | 10.4%
COCCN1CCc2cc(C(=O)N(C)C)c(NCC3CC3)nc2CC1 | 2.7%
Cc1nccn1-c1cccc(C2CCCN(C3CCCCC3)C2)n1 (stereo unspecified) | -4.05%
O=C(c1cccnc1)N1C[C@@H]2CC[C@H](C1)N(Cc1cc(F)ccc1F)C2 | 11%
Cc1cnn(C2CCCN(C(=O)CCCOc3cccc(F)c3)C2)c1 (stereo unspecified) | -1.27%
Cc1cccc(CN2C[C@@H]3COC[C@]3(COc3ccc(C#N)cn3)C2)n1 | -8.22%
